# MEASUREMENT_DESCRIPTION: JC-1 mitochondrial signal, unstimulated myeloma cells – cell-based, JC-1 fluorescence, RPMI8226, 24 h, 100 nL compound, profiling panel (AID 1169); further: test concentration not given here
# MEASUREMENT_PARAMETERS: JC-1 mitochondrial potential fluorescence, higher = more signal
Please enter 1 (yes) where z-score is greater than or equal to -0.7, and 0 (no) where it is lower.

query: Confirm if z-score reported for the molecule COC(=O)c1c2oc(c1C(=O)OC)C(=O)N[C@H](Cc1ccccc1)Cn1nncc1C1(CCCCC1)NC(=O)N[C@H](CO)CC2 is -0.7 or above.
result: 1 (yes)

query: # check: z-score of O=C(NCC(F)(F)F)[C@@H]1c2ccccc2C(=O)N(Cc2ccccc2)[C@H]1c1ccc(CO)cc1 is greater than or equal to -0.7
result: 1 (yes)

query: Does z-score meet or surpass -0.7 for CC(C)NC(=O)[C@@H]1c2ccccc2C(=O)N(C2CCCCC2)[C@H]1c1ccc(CO)cc1 ?
result: 0 (no)

query: Identify whether the reported z-score of the following molecule is -0.7 or greater: COc1ccccc1CN1C(=O)c2ccccc2[C@](Cc2ccccc2I)(C(=O)NCc2ccccc2)[C@@H]1c1ccc(CO)cc1
result: 1 (yes)

query: Dear colleague, could you confirm whether CCCCC(=O)N(Cc1ccccc1F)[C@@H]1CC(C(=O)NCCO)=C[C@H](Oc2c(I)cc(CO)cc2OC)[C@H]1O has z-score at or above -0.7?
result: 1 (yes)

query: // inclusive: z-score at least -0.7? input: C=CCC(OC(C)=O)[C@@H]1[C@@H](N(Cc2cc3ccccc3o2)C(=O)c2ccc(C)cc2)c2cc(OCCCO)ccc2N1C(=O)c1ccc(-c2ccccc2)cc1 (some centres not stated)
result: 1 (yes)
